Recorded IC50 values for a group of compounds are listed next.
Tested on: L540cy HL
Experiment: In vitro cytotoxicity, cell proliferation assay (CellTiter-Glo, 96 h)
Assay type: cell-based
Conditions: auristatin free drug
*1 amine or outer side, *2 acyl side, *3 side chain or, on linkers, in order; H or OH if unused. Where a SMILES comes first, the peptide text is derived from it. [ ]: non-standard residue; d: D form. The star is where a group is joined. Dolaproine = CO[C@@H]([C@@H]1CCCN1)[C@@H](C)C(=O)O; Dil = CC[C@H](C)[C@H](NC)[C@@H](CC(=O)O)OC; X9 = CCN([C@@H](CO)C(=O)[*:2])[*:1]; X1 = C[C@@H](N*)[C@@H](O)c1ccccc1; Phe(ol) = N[C@H](CO)Cc1ccccc1; NMeS = CN[C@@H](CO)C(=O)O
Report as a plain number; the unit nM is understood.

compound: CC[C@H](C)[C@@H]([C@@H](CC(=O)N1CCC[C@H]1[C@H](OC)[C@@H](C)C(=O)N[C@H](C)[C@@H](O)c1ccccc1)OC)N(C)C(=O)[C@@H](NC(=O)[C@H](CO)NC)C(C)C [Example 17] (H-[NMeS]V[Dil][Dolaproine]-X1)
unitInfo: nM
IC50: 16.2

Then there is this compound:
Give a short answer stating reported IC50 for CCN[C@@H](CO)C(=O)N[C@H](C(=O)N(C)[C@@H]([C@@H](C)CC)[C@@H](CC(=O)N1CCC[C@H]1[C@H](OC)[C@@H](C)C(=O)N[C@H](CO)Cc1ccccc1)OC)C(C)C [Example 15] (H-[X9]V[Dil][Dolaproine][Phe(ol)]) .
3.9

====

Recorded pIC50 values for a group of molecules are listed next.
Tested on: L540cy HL
Experiment: In vitro cytotoxicity, cell proliferation assay (CellTiter-Glo, 96 h)
Type: cell-based
Conditions: auristatin free drug
Procedure: The cytotoxicity of free drugs and drug conjugates were measured by a cell proliferation assay employing the protocol described in Promega Corp. Technical Bulletin TB288; and Mendoza et al., 2002, Cancer Res. 62:5485-5488), the methods of which are specifically incorporated by reference herein. […] The contents are mixed for 2 minutes on an orbital shaker to induce cell lysis and the plate is incubated at room temperature for 10 minutes to stabilize the luminescence signal for recordation.
Where a SMILES comes first, the peptide text is derived from it. [ ]: non-standard residue; d: D form. The star is where a group is joined. Dolaproine = CO[C@@H]([C@@H]1CCCN1)[C@@H](C)C(=O)O; Dil = CC[C@H](C)[C@H](NC)[C@@H](CC(=O)O)OC; Phe(ol) = N[C@H](CO)Cc1ccccc1; NHPhenethyl = c1ccc(CCN*)cc1; X2 = CN(C)[C@@H](CO)C(=O)*; NMeS = CN[C@@H](CO)C(=O)O
pIC50 here: minus log base 10 of the concentration, concentration in moles per litre.

molecule: CC[C@H](C)[C@@H]([C@@H](CC(=O)N1CCC[C@H]1[C@H](OC)[C@@H](C)C(=O)NCCc1ccccc1)OC)N(C)C(=O)[C@@H](NC(=O)[C@H](CO)NC)C(C)C [Example 18] (H-[NMeS]V[Dil][Dolaproine]-NHPhenethyl)
metric: pIC50
valueMeasured: 7.80

molecule: CC[C@H](C)[C@@H]([C@@H](CC(=O)N1CCC[C@H]1[C@H](OC)[C@@H](C)C(=O)NC(Cc1ccccc1)c1cccs1)OC)N(C)C(=O)[C@@H](NC(=O)[C@H](CO)N(C)C)C(C)C (stereo partly shown)
metric: pIC50
valueMeasured: 7.80

molecule: CC[C@H](C)[C@@H]([C@@H](CC(=O)N1CCC[C@H]1[C@H](OC)[C@@H](C)C(=O)N[C@H](CO)Cc1ccccc1)OC)N(C)C(=O)[C@@H](NC(=O)[C@H](CO)N(C)C)C(C)C [Example 8] (X2-V[Dil][Dolaproine][Phe(ol)])
metric: pIC50
valueMeasured: 8.18

Then there is this molecule:
Give a short answer stating reported pIC50 for "CC[C@H](C)[C@@H]([C@@H](CC(=O)N1CCC[C@H]1[C@H](OC)[C@@H](C)C(=O)N[C@H](C)[C@@H](O)c1ccccc1)OC)N(C)C(=O)[C@@H](NC(=O)[C@@H](CO)N(C)C)C(C)C" .
8.22

The origin of these recorded values is patent US20240123080A1.
